The reported measurements were obtained from patent US20130330346A1.

# Study System: T1, Human CXCR2 (human, UniProt P25025 1-360)
# T1 sequence: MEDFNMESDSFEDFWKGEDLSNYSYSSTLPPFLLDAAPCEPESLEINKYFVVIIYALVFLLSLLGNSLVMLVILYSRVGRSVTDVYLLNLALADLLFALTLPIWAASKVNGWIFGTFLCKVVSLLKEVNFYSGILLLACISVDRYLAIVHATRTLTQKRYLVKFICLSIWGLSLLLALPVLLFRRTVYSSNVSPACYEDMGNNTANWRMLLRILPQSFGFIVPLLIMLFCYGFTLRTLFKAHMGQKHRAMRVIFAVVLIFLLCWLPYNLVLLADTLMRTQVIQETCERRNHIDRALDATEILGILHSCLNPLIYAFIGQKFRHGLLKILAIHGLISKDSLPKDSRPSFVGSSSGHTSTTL
# Assay Text: cell-based or functional assay
Measured Quantity: [35S]GTPγS % inhibition of max (ENA-78) (%)
Numeric only. Scale: %

INSERT INTO measurements (binder, unit_symbol, value_observed) VALUES
  ('CXCR20035 (other, Biparatopic: two VHH joined by a GlySer linker; also called 54B12-35GS-163E3; 54B12-163E3; not shown: C-terminal c-myc tag and His6 tag coded by pAX100) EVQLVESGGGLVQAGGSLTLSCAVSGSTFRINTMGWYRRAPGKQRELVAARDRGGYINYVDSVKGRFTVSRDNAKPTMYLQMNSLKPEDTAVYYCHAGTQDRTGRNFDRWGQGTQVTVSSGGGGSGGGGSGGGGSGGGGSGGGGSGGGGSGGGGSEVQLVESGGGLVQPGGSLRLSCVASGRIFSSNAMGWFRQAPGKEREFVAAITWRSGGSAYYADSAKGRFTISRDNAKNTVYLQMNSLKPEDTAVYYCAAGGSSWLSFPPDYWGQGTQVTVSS', '%', 100),
  ('CXCR20030 (other, Biparatopic: two VHH joined by a GlySer linker; also called 163D2-35GS-54B12; 163D2-54B12; not shown: C-terminal c-myc tag and His6 tag coded by pAX100) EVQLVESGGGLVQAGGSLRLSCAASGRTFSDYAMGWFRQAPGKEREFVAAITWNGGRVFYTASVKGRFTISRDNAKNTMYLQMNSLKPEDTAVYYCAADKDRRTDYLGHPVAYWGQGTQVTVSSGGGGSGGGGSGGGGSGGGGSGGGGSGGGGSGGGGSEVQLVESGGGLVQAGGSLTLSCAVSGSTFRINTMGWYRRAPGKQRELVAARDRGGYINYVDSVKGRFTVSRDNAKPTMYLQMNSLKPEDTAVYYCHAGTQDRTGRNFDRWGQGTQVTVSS', '%', 100),
  ('CXCR20020 (bispecific antibody, Biparatopic: two VHH joined by a GlySer linker; also called 127D1-35GS-163D2; 127D1-163D2; not shown: C-terminal c-myc tag and His6 tag coded by pAX100) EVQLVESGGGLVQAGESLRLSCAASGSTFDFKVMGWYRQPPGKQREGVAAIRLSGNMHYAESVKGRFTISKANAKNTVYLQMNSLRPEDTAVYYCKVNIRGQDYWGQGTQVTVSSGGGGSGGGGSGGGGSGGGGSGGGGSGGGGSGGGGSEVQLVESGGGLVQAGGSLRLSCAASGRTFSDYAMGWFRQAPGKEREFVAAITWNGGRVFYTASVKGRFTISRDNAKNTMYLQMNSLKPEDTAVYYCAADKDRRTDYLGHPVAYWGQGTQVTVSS', '%', 100),
  ('CXCR20014 (bispecific antibody, Biparatopic: two VHH joined by a GlySer linker; also called 97A9-35GS-2B2; 97A9-2B2; not shown: C-terminal c-myc tag and His6 tag coded by pAX100) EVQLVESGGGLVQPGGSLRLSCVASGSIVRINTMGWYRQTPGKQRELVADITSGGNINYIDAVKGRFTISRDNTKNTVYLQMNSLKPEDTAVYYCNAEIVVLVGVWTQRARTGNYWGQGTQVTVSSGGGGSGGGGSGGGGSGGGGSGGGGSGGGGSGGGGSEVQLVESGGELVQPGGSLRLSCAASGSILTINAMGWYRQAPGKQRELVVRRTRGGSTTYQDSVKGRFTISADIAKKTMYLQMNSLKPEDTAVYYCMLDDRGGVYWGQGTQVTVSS', '%', 100);

Exercise: Field request: [35S]GTPγS % inhibition of max (ENA-78) | item: CXCR20021 (bispecific antibody, Biparatopic: two VHH joined by a GlySer linker; also called 127D1-35GS-163E3; 127D1-163E3; not shown: C-terminal c-myc tag and His6 tag coded by pAX100) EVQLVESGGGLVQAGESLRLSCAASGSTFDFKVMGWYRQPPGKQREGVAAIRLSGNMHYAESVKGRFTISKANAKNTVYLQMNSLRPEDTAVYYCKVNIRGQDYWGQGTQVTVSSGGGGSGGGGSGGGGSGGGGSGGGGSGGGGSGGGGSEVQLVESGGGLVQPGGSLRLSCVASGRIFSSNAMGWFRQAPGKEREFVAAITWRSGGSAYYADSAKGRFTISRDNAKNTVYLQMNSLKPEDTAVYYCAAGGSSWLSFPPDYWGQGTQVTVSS
Solution: 100
